Source: ChEMBL document CHEMBL4387706

Assay: AUC (infinity) in Sprague-Dawley rat at 3 mg/kg, po
Format: ADME, organism-based
Set-up: dose 3 mg/kg, time infinity, route oral
Details: in vivo
In this section, each of the compounds is paired with its reported AUC(0-inf).
assayReadout: AUC(0-inf) (µM·h)

COc1ccccc1N1CCN(c2nc3c(c(=O)[nH]2)CCCC3)CC1 ... 1.27
CS(=O)(=O)c1ccc(-c2nnc(/C=C/c3nnc(-c4ccc(C#N)cc4)o3)n2-c2ccccc2Cl)nc1 ... 2.33
O=c1[nH]c(N2CCC3(CC2)CN(CCO)c2cc(F)cc(F)c23)nc2c1CCCC2 ... 7.92

----------
Biological target: Protein mono-ADP-ribosyltransferase PARP10 (Homo sapiens, UniProt Q53GL7)
Sequence (Q53GL7 whole entry): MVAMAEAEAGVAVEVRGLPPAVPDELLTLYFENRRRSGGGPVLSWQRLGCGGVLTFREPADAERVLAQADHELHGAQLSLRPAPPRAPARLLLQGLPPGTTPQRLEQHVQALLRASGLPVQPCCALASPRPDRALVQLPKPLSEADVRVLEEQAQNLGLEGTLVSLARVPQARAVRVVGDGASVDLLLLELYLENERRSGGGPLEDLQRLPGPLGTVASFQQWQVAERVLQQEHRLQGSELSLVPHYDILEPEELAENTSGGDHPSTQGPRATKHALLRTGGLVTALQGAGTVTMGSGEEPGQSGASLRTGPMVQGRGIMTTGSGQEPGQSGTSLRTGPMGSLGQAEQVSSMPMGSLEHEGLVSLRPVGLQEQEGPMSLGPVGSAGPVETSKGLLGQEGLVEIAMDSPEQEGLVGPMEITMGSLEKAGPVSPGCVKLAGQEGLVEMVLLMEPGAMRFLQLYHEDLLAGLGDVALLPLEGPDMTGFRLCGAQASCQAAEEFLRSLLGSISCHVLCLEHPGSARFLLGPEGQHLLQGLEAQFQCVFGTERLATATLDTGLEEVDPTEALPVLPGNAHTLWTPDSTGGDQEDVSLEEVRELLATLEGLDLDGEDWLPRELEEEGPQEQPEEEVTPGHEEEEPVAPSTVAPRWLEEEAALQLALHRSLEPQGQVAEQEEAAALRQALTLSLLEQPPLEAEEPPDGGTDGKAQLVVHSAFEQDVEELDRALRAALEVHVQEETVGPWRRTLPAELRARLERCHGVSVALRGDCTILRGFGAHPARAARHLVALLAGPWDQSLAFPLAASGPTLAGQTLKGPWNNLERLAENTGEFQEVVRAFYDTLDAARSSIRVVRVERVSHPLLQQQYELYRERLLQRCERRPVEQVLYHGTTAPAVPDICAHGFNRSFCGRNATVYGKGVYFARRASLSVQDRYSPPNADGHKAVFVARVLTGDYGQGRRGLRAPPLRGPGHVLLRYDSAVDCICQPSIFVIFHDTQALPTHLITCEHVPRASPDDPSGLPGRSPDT
Experiment: Inhibition of human recombinant N-terminal TEV-cleavgae site-fused-FLAG/Polyhis-tagged PARP10 […] expressed in Escherichia coli assessed as reduction in auto-PARylation using histone as substrate measured after 45 mins in presence of biotinylated-NAD+ by ELISA
pIC50: −log10 of the molar value.
Entries and their measured pIC50 follow.
assayReadout: pIC50

COc1ccccc1N1CCN(c2nc3c(c(=O)[nH]2)CCCC3)CC1 ... 4.99
O=c1[nH]c(N2CCC3(CC2)CN(CCO)c2cc(F)cc(F)c23)nc2c1CCCC2 ... 4.70

----------
Assay: Protein binding in mouse serum assessed as unbound fraction at 1 uM measured after 24 hrs by LC-MS/MS analysis
Format: ADME, cell-free
Entries annotated with measured fraction unbound at 24 h, 1 µM
assayReadout: fraction unbound at 24 h, 1 µM

Oc1nc(-c2ccc(C(F)(F)F)cc2)nc2c1CSCC2 ... 0.086
CS(=O)(=O)c1ccc(-c2nnc(/C=C/c3nnc(-c4ccc(C#N)cc4)o3)n2-c2ccccc2Cl)nc1 ... 0.035
O=C1N(CCO)c2cccc(Cl)c2C12CCN(c1nc3c(c(=O)[nH]1)CCCC3)CC2 ... 0.042
COc1ccccc1N1CCN(c2nc3c(c(=O)[nH]2)CCCC3)CC1 ... 0.029
O=c1[nH]c(N2CCC3(CC2)CN(CCO)c2cc(F)cc(F)c23)nc2c1CCCC2 ... 0.015
O=C1N(CCO)c2cc(F)cc(F)c2C12CCN(c1nc3c(c(=O)[nH]1)CCCC3)CC2 ... 0.077
O=c1[nH]c(N2CCC3(CC2)CN(CCO)c2cccc(Cl)c23)nc2c1CCCC2 ... 0.01

----------
Assay: physchem
Conditions: phosphate buffer, pH 7.4
Decision: solubility at 1 h, 200 µM compared against 20 µg/mL; not below it gives T, below it gives F.

COc1ccccc1N1CCN(c2nc3c(c(=O)[nH]2)C[S+]([O-])CC3)CC1 (stereo not given) ... F
COc1cccc(N2CCN(c3nc4c(c(=O)[nH]3)CSCC4)CC2)c1 ... F
O=C1N(CCO)c2ccccc2C12CCN(c1nc3c(c(=O)[nH]1)CCCC3)CC2 ... T
O=C1N(CCO)c2cccc(Cl)c2C12CCN(c1nc3c(c(=O)[nH]1)CCCC3)CC2 ... T
O=C1Nc2cc(F)cc(F)c2C12CCN(c1nc3c(c(=O)[nH]1)CCCC3)CC2 ... F
COc1cccc(N2CCN(c3nc4c(c(=O)[nH]3)CCCC4)CC2)c1 ... F
COc1ccccc1N1CCN(c2nc3c(c(=O)[nH]2)CC(F)(F)CC3)CC1 ... F
O=C1Nc2cc(Cl)cc(Cl)c2C12CCN(c1nc3c(c(=O)[nH]1)CCCC3)CC2 ... F
O=c1[nH]c(N2CCC3(CC2)CNc2cc(F)ccc23)nc2c1CCCC2 ... F
O=c1[nH]c(N2CCC3(CC2)NCc2ccccc23)nc2c1CCCC2 ... T

----------
Measured Tmax values are reported for all entries that follow.
Assay: Tmax in Sprague-Dawley rat at 3 mg/kg, po
Format: ADME, organism-based
Settings: in vivo
assayReadout: Tmax (min)

O=c1[nH]c(N2CCC3(CC2)CN(CCO)c2cc(F)cc(F)c23)nc2c1CCCC2 ... 15
CS(=O)(=O)c1ccc(-c2nnc(/C=C/c3nnc(-c4ccc(C#N)cc4)o3)n2-c2ccccc2Cl)nc1 ... 240
COc1ccccc1N1CCN(c2nc3c(c(=O)[nH]2)CCCC3)CC1 ... 30

----------
Assay: physchem
Conditions: phosphate buffer, pH 7.4
assayReadout: solubility at 1 h, 200 µM (µg/mL)

COc1ccccc1N1CCN(c2nc3c(c(=O)[nH]2)CCCC3)CC1 ... 10
COc1ccc(N2CCN(c3nc4c(c(=O)[nH]3)CSCC4)CC2)cc1 ... 0.9
O=C1Nc2cccc(F)c2C12CCN(c1nc3c(c(=O)[nH]1)CCCC3)CC2 ... 3.1
Oc1nc(-c2ccc(C(F)(F)F)cc2)nc2c1CSCC2 ... 0.4

----------
Observed IC50, system Tankyrase 1/2 (Homo sapiens, UniProt Q9H2K2+O95271).
assayReadout: IC50 (nM)

COc1ccc(N2CCN(c3nc4c(c(=O)[nH]3)CC(F)(F)CC4)CC2)cc1 ... 1971
O=c1[nH]c(N2CCC3(CC2)CNc2cccc(F)c23)nc2c1CCCC2 ... 72.4
O=C1Nc2cc(Cl)cc(Cl)c2C12CCN(c1nc3c(c(=O)[nH]1)CCCC3)CC2 ... 533
O=C1Nc2cccc(Br)c2C12CCN(c1nc3c(c(=O)[nH]1)CCCC3)CC2 ... 91.2

----------
Measured fold change (FC) accompanies every entry in the list below.
Target: Tankyrase 1/2 (Homo sapiens) (UniProt Q9H2K2+O95271)
Sequence (O95271 whole entry, looked up): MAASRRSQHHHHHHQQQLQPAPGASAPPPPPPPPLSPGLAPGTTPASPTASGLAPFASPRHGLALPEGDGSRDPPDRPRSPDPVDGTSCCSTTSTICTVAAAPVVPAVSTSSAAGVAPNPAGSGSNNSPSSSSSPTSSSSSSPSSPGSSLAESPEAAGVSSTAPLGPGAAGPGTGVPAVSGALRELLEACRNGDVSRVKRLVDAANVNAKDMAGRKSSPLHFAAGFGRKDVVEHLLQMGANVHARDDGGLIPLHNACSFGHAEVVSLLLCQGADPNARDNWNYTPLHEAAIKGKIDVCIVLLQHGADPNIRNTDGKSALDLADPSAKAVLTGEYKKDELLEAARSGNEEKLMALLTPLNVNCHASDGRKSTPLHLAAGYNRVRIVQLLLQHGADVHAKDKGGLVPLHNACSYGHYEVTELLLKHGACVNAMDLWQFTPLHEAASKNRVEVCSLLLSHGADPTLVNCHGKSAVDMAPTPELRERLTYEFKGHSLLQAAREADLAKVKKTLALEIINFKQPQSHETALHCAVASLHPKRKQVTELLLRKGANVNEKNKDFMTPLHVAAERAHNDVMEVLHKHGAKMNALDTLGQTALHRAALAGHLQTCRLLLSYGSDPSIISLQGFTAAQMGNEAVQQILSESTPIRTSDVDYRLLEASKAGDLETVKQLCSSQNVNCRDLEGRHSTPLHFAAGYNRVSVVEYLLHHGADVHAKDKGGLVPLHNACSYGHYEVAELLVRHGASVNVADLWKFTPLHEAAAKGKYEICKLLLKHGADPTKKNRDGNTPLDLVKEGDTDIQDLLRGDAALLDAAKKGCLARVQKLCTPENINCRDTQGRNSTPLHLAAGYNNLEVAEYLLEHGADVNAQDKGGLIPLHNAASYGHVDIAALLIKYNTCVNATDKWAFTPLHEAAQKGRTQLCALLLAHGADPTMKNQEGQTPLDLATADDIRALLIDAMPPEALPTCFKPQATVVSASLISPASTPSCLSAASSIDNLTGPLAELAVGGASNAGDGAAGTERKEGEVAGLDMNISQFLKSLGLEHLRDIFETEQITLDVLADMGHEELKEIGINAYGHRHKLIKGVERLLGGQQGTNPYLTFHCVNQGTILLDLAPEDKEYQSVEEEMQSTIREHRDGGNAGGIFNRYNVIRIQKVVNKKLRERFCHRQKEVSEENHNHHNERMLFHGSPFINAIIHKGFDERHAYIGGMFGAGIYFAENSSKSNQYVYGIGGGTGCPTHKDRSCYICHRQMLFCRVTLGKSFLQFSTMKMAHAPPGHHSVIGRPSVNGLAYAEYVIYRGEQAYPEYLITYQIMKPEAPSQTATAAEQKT
Sequence (Q9H2K2 whole entry, looked up): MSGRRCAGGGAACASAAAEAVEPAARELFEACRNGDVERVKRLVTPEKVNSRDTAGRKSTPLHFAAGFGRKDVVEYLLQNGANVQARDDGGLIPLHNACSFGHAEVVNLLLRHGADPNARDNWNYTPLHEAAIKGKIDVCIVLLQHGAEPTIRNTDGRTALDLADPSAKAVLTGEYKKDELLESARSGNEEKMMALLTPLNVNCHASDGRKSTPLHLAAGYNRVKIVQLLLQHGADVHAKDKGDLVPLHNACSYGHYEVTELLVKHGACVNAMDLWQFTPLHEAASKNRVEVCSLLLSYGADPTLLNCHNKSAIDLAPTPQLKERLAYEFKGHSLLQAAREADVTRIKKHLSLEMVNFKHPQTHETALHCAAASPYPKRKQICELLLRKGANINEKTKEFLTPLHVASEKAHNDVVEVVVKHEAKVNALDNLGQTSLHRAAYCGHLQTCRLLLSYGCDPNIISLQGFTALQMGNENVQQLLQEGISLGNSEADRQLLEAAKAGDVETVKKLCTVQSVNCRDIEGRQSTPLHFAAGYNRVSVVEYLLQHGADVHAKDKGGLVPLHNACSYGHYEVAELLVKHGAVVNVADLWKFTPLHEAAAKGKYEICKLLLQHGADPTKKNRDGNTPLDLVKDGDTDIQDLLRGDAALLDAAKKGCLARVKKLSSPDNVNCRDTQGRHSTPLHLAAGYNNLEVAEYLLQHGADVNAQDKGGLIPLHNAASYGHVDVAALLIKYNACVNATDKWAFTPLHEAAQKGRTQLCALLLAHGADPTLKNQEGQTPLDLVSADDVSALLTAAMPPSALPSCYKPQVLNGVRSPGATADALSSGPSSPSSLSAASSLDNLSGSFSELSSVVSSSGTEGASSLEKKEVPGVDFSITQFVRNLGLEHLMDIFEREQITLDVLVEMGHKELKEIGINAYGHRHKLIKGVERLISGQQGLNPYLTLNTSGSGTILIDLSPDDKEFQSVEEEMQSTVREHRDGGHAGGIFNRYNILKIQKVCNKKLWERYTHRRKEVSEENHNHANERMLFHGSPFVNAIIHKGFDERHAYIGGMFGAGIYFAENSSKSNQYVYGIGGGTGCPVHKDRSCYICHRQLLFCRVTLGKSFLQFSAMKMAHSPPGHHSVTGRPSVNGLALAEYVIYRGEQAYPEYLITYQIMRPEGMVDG
Assay: Inhibition of TNKS/TNKS2 in human COLO320DM cells assessed as upregulation of AXIN2 expression at 0.1 uM measured after 16 hrs by Western blot analysis relative to G007-LK
Assay type: cell-based
assayReadout: fold change (FC)

O=C1N(CCO)c2cccc(F)c2C12CCN(c1nc3c(c(=O)[nH]1)CCCC3)CC2 ... 4.1
O=c1[nH]c(N2CCC3(CC2)CN(CCO)c2cc(Cl)cc(Cl)c23)nc2c1CCCC2 ... 4.03
O=C1N(CCO)c2cc(F)cc(F)c2C12CCN(c1nc3c(c(=O)[nH]1)CCCC3)CC2 ... 3.93
